Ref: PubChem BioAssay (NCI)

Property: TGI; scope: individual compounds
- System: NCI-H460 lung
- ASSAY REMARKS: NCI tumour cell line growth inhibition, 48 h

SMI	REPORTED VALUE
CNS(=O)(=O)NNS(=O)(=O)c1cccc([N+](=O)[O-])c1	> 100 µM
CCn1c(-c2nonc2N)nc2c(C#CC(C)(C)O)nc(CN3CCCC3)cc21	> 25 µM

Consider the additional compound presented here.
Please look up its TGI: O=C1C(N2CCOCC2)=C(Cl)C(=O)c2ncccc21 > 10 µM

----------
- Test system: UO-31 renal
- ASSAY REMARKS: NCI tumour cell line growth inhibition, 48 h
ASSAY READOUT: TGI

Some solved entries appear below for comparison.
COMPOUND	TGI
O=C1Nc2ccccc2C12CCCC2	> 100 µM
c1ccc(-c2[o+]c(-c3ccccc3)c(-c3ccccc3)c(-c3ccccc3)c2-c2ccccc2)cc1	> 100 µM
Nc1cccc(CCN2CCN(CCCc3ccccc3)CC2)c1	> 100 µM
CC(=O)N1C(Nc2ccccc2)CCN1c1ccccc1 (configuration not stated)	> 10 µM
O=C(NC/C(Cl)=C/Cl)Nc1c2ccccc2nc2ccccc12	> 100 µM
COC12OCCN(CCO)C1=CC(=O)C1(C)N=NC(C)C12 (configuration not stated)	> 100 µM
C[C@]12CCC3c4ccc(O)cc4CC[C@H]3C1CC(=O)NC2=O (some centres not stated)	> 10 µM
C=C1c2nc3ccccc3n2C=C(c2ccc(OC)cc2)N1c1ccccc1	> 91.3 µM

For UO-31 renal, provide TGI of O=C1OC(c2ccccc2)=N/C1=C\c1ccc(Cl)cc1 please. > 100 µM

Another: S=c1nc2sc3c(c2c(Nc2ccccc2)[nH]1)CCCC3 > 100 µM

Another: COC(=O)C1(C(=O)OC)CC(=O)c2c(OC(=O)c3cccc(OC)c3C#N)ccc(OC(=O)c3cccc(OC)c3C#N)c2C1 > 100 µM

Another: CN(C(=O)Nc1ccc(Cl)c(Cl)c1)C1CCCC[C@@H]1N1CCCC1 (some centres not stated) 84.2 µM

----------
- Test system: COLO 205 colon
- ASSAY REMARKS: NCI tumour cell line growth inhibition, 48 h
ASSAY READOUT: TGI

COMPOUND	EXPERIMENTAL TARGET	TGI
O=C(CC(=O)N1N=C(N2c3ccccc3Sc3ccccc32)CC1c1ccccc1)Nc1ccccc1Cl (stereo unspecified)	COLO 205 colon	> 100 µM
C/C(=C1\SC(=NCc2cccs2)NC1=O)c1ccc2ncccc2c1	COLO 205 colon	> 25 µM
COc1ccc(C2SC(N)=Nc3c2c(C)nn3C(=O)c2ccccc2O)cc1 (stereo unspecified)	COLO 205 colon	> 10 µM
C=CCN1C(N)=C(C#N)C(C#N)(C#N)C1CCC (stereo unspecified)	COLO 205 colon	> 100 µM
O=C(O)CCN1CCN(CCC(=O)O)CCN(CCC(=O)O)CC1	COLO 205 colon	> 100 µM

Consider the additional compound presented here.
Please look up its TGI: O=S(=O)(O)c1cc(N=Nc2cccc3ccccc23)c(O)c2ncccc12 > 100 µM

----------
- Tested on: SF-268 CNS
- ASSAY REMARKS: NCI tumour cell line growth inhibition, 48 h
ASSAY READOUT: TGI

Some solved entries appear below for comparison.
COMPOUND	EXPERIMENTAL TARGET	TGI
CC(C)NC(=O)OCc1c(COC(=O)NC(C)C)c(-c2ccc[n+](COC(=O)C(C)C)c2)n2c1CCC2	SF-268 CNS	> 100 µM
COc1ccc(C2=C(Cl)C(=O)N(c3ccc(OC)cc3OC)C(=O)C2(Cl)Cl)cc1	SF-268 CNS	65.9 µM
CCOCc1cc(=O)c2cc3c(cc2o1)OC(C)(C)CC3	SF-268 CNS	> 100 µM
COc1c2c(cc3occ(-c4ccc(CC=C(C)C)cc4)c(=O)c13)OC(C)(C)C=C2	SF-268 CNS	> 100 µM
COC(=O)Cc1c(C(=O)CC(C)(C)n2cnc(CCN3C(=O)CCC3=O)c2)[nH]c2ccccc12	SF-268 CNS	> 100 µM
CCCCCCCCCC(CCCC(O)CC(=O)O)OC1OC(COC2OC(C)C(O)C(O)C2O)C(O)C(O)C1OC1OC(CO)C(O)C(O)C1OC1OC(C)C(OC(=O)CC(C)C)C(O)C1O (stereo not drawn)	SF-268 CNS	> 60 µM
NC(N)=N/N=C\c1ccc(C2CCNCC2)cc1	SF-268 CNS	> 100 µM
COc1ccc(C2SCc3nc4ccccc4n32)cc1 (stereo not drawn)	SF-268 CNS	> 100 µM
O=C(N=Nc1c(O)[nH]c2ccccc12)C(O)(c1ccccc1)c1ccccc1	SF-268 CNS	87.9 µM
COc1ccc2c(c1)CCc1c(C(C)=O)c3ccccc3n1C2	SF-268 CNS	> 100 µM

Please look up its TGI: O=C1OC(c2ccccc2)=N/C1=C\c1ccc(Cl)cc1 > 100 µM

Another: CCn1c(-c2nonc2N)nc2c(C#CC(C)(C)O)nc(CN3CCCC3)cc21 > 25 µM

Another: COc1ccc(-c2nc(N)n(C)c2SSc2c(-c3ccc(OC)cc3)nc(N)n2C)cc1 33.7 µM
